Attribution: patent US10392368B2

IC50 listing for selected molecules.
Test system: IL-2 stimulated pSTAT5 in Tall-1 T cells
method-notes: Cellular JAK3 potency assay: inhibition of IL-2 stimulated pSTAT5 in Tall-1 T cells
Format: cell-based, human
condition-set: Homo sapiens, TALL-1, IL-2 stimulated pSTAT5 in Tall-1 T cells; read-out: Tall-1 (pIC50) (converted)

molecule	IC50
CN(C/C=C/C(=O)N1CC(COc2cc(-c3ccc(O)cc3)cc3[nH]ncc23)C1)C1CCC1	31.6 to 200 nM
C=CC(=O)N1CC[C@H](Oc2cc(-c3cc(F)c(O)c(F)c3)cc3[nH]ncc23)C1	31.6 to 200 nM
CCSCCNC/C=C/C(=O)N1CC(COc2cc(-c3ccc(O)cc3)cc3[nH]ncc23)C1	200 to 1000 nM
CN(C)C/C=C/C(=O)N1CC(C#N)(COc2cc(-c3ccc(O)c(Cl)c3)cc3[nH]ncc23)C1	< 31.6 nM
C=CC(=O)N1CC[C@H](Oc2cc(-c3c(F)cc(O)cc3F)cc3[nH]ncc23)C1	< 31.6 nM
C=CC(=O)N1CC[C@H](Oc2cc(-c3ccc(O)cc3F)cc3[nH]ncc23)C1	< 31.6 nM
C=CC(=O)N1CC[C@H](Oc2cc(-c3ccc(O)cc3)cc3[nH]ncc23)C1	< 31.6 nM
C=CC(=O)N1CC[C@H](S(=O)(=O)c2cc(-c3ccc(O)cc3)cc3[nH]ncc23)C1	31.6 to 200 nM
COC[C@H]1CCN(C/C=C/C(=O)N2CC(COc3cc(-c4ccc(O)cc4)cc4[nH]ncc34)C2)C1	31.6 to 200 nM
C=CC(=O)N1CC[C@H](Oc2nc(-c3ccc(O)c(F)c3)cc3[nH]ncc23)C1	31.6 to 200 nM
C=CC(=O)N1CC(COc2nc(-c3ccc(O)cc3)nc3[nH]ncc23)C1	31.6 to 200 nM
C=CC(=O)N1CC[C@H](Oc2cc(-c3ccc(O)c(F)c3)cc3[nH]nc(C)c23)C1	< 31.6 nM
CN(C)C/C=C\C(=O)N1CC(COc2cc(-c3ccc(O)c(Cl)c3)cc3[nH]ncc23)C1	< 31.6 nM
COCCN(C/C=C/C(=O)N1CC(COc2cc(-c3ccc(O)cc3)cc3[nH]ncc23)C1)CCOC	31.6 to 200 nM
C=C(CN(C)C)C(=O)N1CC(COc2cc(-c3ccc(O)cc3)nc3[nH]ncc23)C1	31.6 to 200 nM
CN1CCC[C@@H]1/C=C/C(=O)N1CC(COc2cc(-c3ccc(O)cc3)cc3[nH]ncc23)C1	< 31.6 nM

====

Listed below: Ki values for each entry.
assayed-system: JAK1 (Homo sapiens, UniProt P23458)
Construct: GST; purchased Life Technologies
Sequence (P23458 whole entry): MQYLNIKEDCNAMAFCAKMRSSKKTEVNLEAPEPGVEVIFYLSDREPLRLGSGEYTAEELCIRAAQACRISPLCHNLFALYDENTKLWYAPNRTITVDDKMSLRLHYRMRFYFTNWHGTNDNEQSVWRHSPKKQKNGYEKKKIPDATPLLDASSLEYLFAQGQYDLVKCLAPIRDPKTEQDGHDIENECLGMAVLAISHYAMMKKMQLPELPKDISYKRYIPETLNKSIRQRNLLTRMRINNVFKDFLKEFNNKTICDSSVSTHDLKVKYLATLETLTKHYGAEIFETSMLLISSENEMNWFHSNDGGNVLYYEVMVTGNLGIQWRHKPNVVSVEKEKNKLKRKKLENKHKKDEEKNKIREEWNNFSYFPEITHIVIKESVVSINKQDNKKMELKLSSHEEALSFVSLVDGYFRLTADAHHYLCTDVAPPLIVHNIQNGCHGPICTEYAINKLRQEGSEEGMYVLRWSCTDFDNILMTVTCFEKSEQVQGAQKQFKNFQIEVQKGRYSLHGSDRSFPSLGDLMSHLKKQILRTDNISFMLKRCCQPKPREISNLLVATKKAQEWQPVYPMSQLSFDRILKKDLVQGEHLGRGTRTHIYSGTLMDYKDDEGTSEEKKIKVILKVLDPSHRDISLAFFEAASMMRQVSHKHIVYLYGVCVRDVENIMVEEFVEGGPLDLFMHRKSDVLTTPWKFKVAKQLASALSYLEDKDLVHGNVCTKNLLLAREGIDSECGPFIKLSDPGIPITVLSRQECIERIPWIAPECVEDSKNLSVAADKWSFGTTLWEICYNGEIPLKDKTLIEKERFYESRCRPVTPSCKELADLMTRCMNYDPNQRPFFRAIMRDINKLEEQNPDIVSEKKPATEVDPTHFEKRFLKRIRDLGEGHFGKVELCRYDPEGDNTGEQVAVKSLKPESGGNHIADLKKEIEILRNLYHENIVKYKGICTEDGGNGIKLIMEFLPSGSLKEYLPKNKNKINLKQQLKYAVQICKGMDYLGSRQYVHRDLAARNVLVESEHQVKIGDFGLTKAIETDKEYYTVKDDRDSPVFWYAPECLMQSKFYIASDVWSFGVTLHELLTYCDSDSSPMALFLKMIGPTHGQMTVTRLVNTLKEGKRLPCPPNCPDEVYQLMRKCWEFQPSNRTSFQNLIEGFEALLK
method-notes: Biochemical JAK1 kinase assay (LanthaScreen)
condition-set: read-out: JAK 1 (pKi) (converted)
observable: Ki

molecule	observable	result
C=CC(=O)N1CC2(CC(Oc3cc(-c4ccc(O)cc4)cc4[nH]ncc34)C2)C1 [Compound 12-21]	Ki	> 100 nM
C=CC(=O)N1CCC(Nc2cc(-c3ccc(O)cc3)cc3[nH]ncc23)CC1 [Compound 7-4]	Ki	10 to 100 nM
C=CC(=O)N1CC(F)(COc2cc(-c3ccc(O)cc3)cc3[nH]ncc23)C1 [Compound 3-6]	Ki	10 to 100 nM
CN(C)C/C=C/C(=O)N1CC(COc2cc(-c3ccc(O)c(F)c3)cc3[nH]ncc23)C1 [Compound 5]	Ki	> 100 nM
C=CC(=O)N1CC(COc2nc(-c3ccc(O)cc3)nc3[nH]ncc23)(OC)C1 [Compound 3-76]	Ki	> 100 nM
COCCN(C/C=C/C(=O)N1CC(COc2cc(-c3ccc(O)cc3)cc3[nH]ncc23)C1)CCOC [Compound 3-120]	Ki	> 100 nM
O=C(/C=C/CN1CCOCC1)N1CC(COc2cc(-c3ccc(O)cc3)cc3[nH]ncc23)C1 [Compound 3-129]	Ki	> 100 nM
C=CC(=O)N1CC(COc2cc(-c3ccc(O)c(C)c3)cc3[nH]ncc23)C1 [Compound 18-9]	Ki	> 100 nM
